assay.target: T1, UNK ZnF1-3 (human, UniProt Q9C0B0 31-174)
T1 sequence: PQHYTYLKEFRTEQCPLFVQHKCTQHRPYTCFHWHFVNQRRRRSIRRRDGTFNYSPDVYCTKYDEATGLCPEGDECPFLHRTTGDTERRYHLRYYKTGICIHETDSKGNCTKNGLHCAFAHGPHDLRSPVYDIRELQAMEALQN
assay.text: nsRBNS (natural sequence RNA bind-n-seq); RBNS binding buffer (assumed for nsRBNS): 25 mM Tris pH 7.5, 150 mM KCl, 3 mM MgCl2, 0.01% Triton X-100, 500 ug/ml BSA, 20 U/ml SUPERase-In, 4 C; UNK is unkempt and MSI1 is Musashi-1; names of the RNAs are library labels; protein concentration not given here; high values mean tight binding
In all, about 24,000 sequences were measured (“enrichment r”: median about 0.99, highest 2% from about 3.7 on). What follows is part of a selection rich in the highest values, with near analogues and random picks from the rest.
The entries below come with measured binding signal values attached.
Please state the figure in enrichment R; there is no need to write the unit.

{"columns": ["binder", "unit.name", "numeric.value"],
 "data": [
  ["chr6:41757443:41757444:+_ENSG00000214736_ENST00000398881|hu_mus|hu_hu_hu_mus_False|58_58 (ssRNA) RNA: GGGAGUUCUACAGUCCGACGAUCGAACCGUGCAGAGGCAACAUCUCAGCCGACACUGGGGGAUGGGGGGGCAGUGGGAAACUAGGCAGGCAAGGAGAGGGAGUCAACUUCAGCUGCCACUCAGGUAGGAUCUUGUGGUCACAGCAACAGAGGAUUGAGCAUCA", "enrichment R", 2.2]
]}

# binding signal (binder: chr10:77750680:77750681:-_ENSMUSG00000001211_ENSMUST00000139282|mus_hu|FALSE|FALSE (ssRNA) RNA: GGGAGUUCUACAGUCCGACGAUCGCGGCGGUAGAGCUGCUUGCUGACCGGCCAGAGCGCCAGCGUGCACAGCUGGACGAAGUUGAUGACCAGACCACUCACCACGAAGACAAAGCCGACCAGCAGGUGCAGCACGAACUGGGUCAACAGAGGAUUGAGCAUCA ) is 0.809

# binding signal (binder: chr7:133639990:133639991:-_ENSMUSG00000032637_ENSMUST00000167759|mus_hu|FALSE|FALSE (ssRNA) RNA: GGGAGUUCUACAGUCCGACGAUCGGUAGAGAGUUCUUUUACAUCUGUGGGGGCCAGGGAGAUCUUUGGAGAAGCUGGAGAAAUGGAGCCCACUCCAGGAUCUGAGACUGAUGAGGUCACAGGGAUGGAGGCUGAAGAGGUUGGCAACAGAGGAUUGAGCAUCA ) is 2.03

Where these numbers come from: paper PMC12136788
